tested on: potato leafhopper (Empoasca fabae); assay: Test C: control of potato leafhopper through contact and/or systemic means on Soleil bean plant; assay type: in vivo; settings: 144 h, sprayed at 250 ppm, adults on Soleil bean plant, held 6 days at 19-21° C., three replicates, read-out: control efficacy: mortality
Test Readout: mortality at 250 ppm

Check out these entries, answers already filled in.
Param readout = mortality at 250 ppm; param system = potato leafhopper (Empoasca fabae); param query = O=C(NCc1ccc(C2=NOC(c3cc(Cl)cc(Cl)c3)(C(F)(F)F)C2)c2ccccc12)C1CC1 (stereo not shown) ; response: value ≥ 80%

Please state recorded mortality at 250 ppm (tested on potato leafhopper (Empoasca fabae)) of O=C(NCc1ccc(C2=NOC(c3cc(Cl)cc(C(F)(F)F)c3)(C(F)(F)F)C2)c2ccccc12)C1CC1 (stereo not shown) ≥ 80%

// map CC(C)C(=O)NCc1ccc(C2=NOC(c3cc(Cl)cc(Cl)c3)(C(F)(F)F)C2)c2ccccc12 (stereo not shown) to recorded mortality at 250 ppm (system: potato leafhopper (Empoasca fabae)) ≥ 80%

Okay, next one:
GET /values?readout=mortality at 250 ppm&system=potato leafhopper (Empoasca fabae)&item= CC(C)C(=O)NCc1ccc(C2=NOC(c3cc(Cl)cc(C(F)(F)F)c3)(C(F)(F)F)C2)c2ccccc12 (stereo not shown) ≥ 80%
